Measured interaction score values are reported for all entries that follow.
# assayed system: T1, P7bHq
# T1 chain: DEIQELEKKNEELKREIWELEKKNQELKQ
# protocol description: two-hybrid library CCNG1;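 note: natural log of median RNA to DNA barcode read ratio; higher means stronger binding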
# print the numeric value only

DKNQELKKKIEELKRKIWELKKENQELEQ [P12bHq] : 0.639

Asked: Provide only the value of recorded interaction score for DKNQELKKEIEELERENWELEKKIQELKQ [P6bHq]
Given back: 0.113

Asked: Provide only the value of recorded interaction score for DENQELEKKIEELKRKNWELKKEIQELEQ [P5bHq]
Given back: -0.58
